# credit: ChEMBL document CHEMBL1132549

Fibroblast growth factor receptor 1 (Homo sapiens, UniProt P11362): recorded IC50 for assorted compounds
Sequence (P11362 whole entry): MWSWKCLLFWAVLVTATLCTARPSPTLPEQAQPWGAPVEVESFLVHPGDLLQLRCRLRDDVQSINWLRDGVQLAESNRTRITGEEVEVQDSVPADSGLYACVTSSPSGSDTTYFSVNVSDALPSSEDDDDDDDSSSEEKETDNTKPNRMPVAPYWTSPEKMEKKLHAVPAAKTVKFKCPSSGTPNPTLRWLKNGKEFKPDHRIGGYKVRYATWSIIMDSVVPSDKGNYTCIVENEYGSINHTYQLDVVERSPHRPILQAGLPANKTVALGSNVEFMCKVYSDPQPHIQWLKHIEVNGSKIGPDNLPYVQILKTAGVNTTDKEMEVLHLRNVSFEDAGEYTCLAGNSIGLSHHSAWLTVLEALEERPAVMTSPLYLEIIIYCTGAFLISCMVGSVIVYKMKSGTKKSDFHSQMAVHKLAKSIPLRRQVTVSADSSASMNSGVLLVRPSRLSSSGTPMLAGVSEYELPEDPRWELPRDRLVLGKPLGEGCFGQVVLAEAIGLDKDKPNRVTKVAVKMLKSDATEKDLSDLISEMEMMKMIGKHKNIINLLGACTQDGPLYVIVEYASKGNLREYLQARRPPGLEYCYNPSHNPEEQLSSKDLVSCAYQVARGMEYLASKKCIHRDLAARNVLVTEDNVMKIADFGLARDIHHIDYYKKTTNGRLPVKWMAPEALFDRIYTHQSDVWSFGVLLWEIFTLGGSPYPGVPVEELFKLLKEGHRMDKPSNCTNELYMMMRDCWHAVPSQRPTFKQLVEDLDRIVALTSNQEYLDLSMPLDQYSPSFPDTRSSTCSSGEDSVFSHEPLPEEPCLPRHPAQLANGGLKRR

- compound: "COc1cc2ncnc(Nc3ccc(Cl)cc3F)c2cc1OC"
  IC50: "7 µM"
- compound: "COc1cc2c(Nc3ccc(Cl)cc3F)ncnc2cc1OCc1ccncc1"
  IC50: "> 33 µM"
- compound: "COCC(=O)Nc1cc2ncnc(Nc3ccc(Cl)cc3F)c2cc1OC"
  IC50: "> 50 µM"
- compound: "COc1cc2c(Nc3ccc(Br)cc3F)ncnc2cc1OCCn1ccnn1 [ZD-4190 FREE BASE]"
  IC50: "> 100 µM"
- compound: "COCCOc1cc2ncnc(Nc3cccc(O)c3)c2cc1OC"
  IC50: "7 µM"

Kindly state the measured IC50 obtained for COc1cc2ncnc(Nc3ccc(Cl)cc3)c2cc1OC with Fibroblast growth factor receptor 1 (Homo sapiens, UniProt P11362).
> 100 µM

* * *

- experimental_target: Fibroblast growth factor receptor (Homo sapiens, UniProt P22607+P11362+P22455+P21802)
- condition_summary: huvec
Catalogue of molecules with associated IC50
Response body: numeric value in µM, unit text excluded.

Would you mind telling me what IC50 value was observed for COc1cc2c(Nc3c(F)cc(Br)cc3F)ncnc2cc1OCCn1ccnn1 ?
0.1

What do you get for COCCOc1cc2ncnc(Nc3cc(O)c(Cl)cc3F)c2cc1OC ?
0.8

What do you get for COc1cc2c(Nc3ccc(C#N)cc3F)ncnc2cc1OCCn1ccnn1 ?
3

What do you get for COc1cc2c(Nc3ccc(Br)cc3F)ncnc2cc1OCCn1ccnn1 [ZD-4190 FREE BASE] ?
1.5

* * *

- experimental_target: UniProtKB P11362
Catalogue of molecules with associated IC50
Response body: numeric value in µM, unit text excluded.

- item_smiles: "COc1cc2c(Nc3ccc(Cl)cc3F)ncnc2cc1OCCCN1CCOCC1"
  experimental_target: "UniProtKB P11362"
  unit_descriptor: "µM"
  endpoint_value: 6.7
- item_smiles: "COCCOc1ccc2c(Nc3ccc(Cl)cc3F)ncnc2c1"
  experimental_target: "UniProtKB P11362"
  unit_descriptor: "µM"
  endpoint_value: 16
- item_smiles: "COc1cc2c(Nc3ccc(Cl)cc3F)ncnc2cc1OCCN(C)c1ccncc1"
  experimental_target: "UniProtKB P11362"
  unit_descriptor: "µM"
  endpoint_value: 1.6
- item_smiles: "COc1cc2ncnc(Nc3cccc(O)c3)c2cc1OC"
  experimental_target: "UniProtKB P11362"
  unit_descriptor: "µM"
  endpoint_value: 11
- item_smiles: "COCCOc1cc2nccc(Nc3ccc(Cl)cc3F)c2cc1OC"
  experimental_target: "UniProtKB P11362"
  unit_descriptor: "µM"
  endpoint_value: 9.3
- item_smiles: "COCCOc1cc2ncnc(Nc3cc(O)c(Cl)cc3F)c2cc1OC"
  experimental_target: "UniProtKB P11362"
  unit_descriptor: "µM"
  endpoint_value: 7.4

Would you mind telling me what IC50 value was observed for COc1cc2ncnc(Nc3ccc(F)cc3F)c2cc1OC ?
58

* * *

- measurement_protocol: Mouse plasma levels are obtained 6 hr after oral administration of 100 mg/kg of compound.
- Assay type: ADME, organism-based
- Design: dose 100 mg/kg, route oral
- condition_summary: read-out: Plasma level
Catalogue of compounds with associated log10 concentration at 6 h
Each number you see is log10 of concentration at 6 h, and the unit inside the log is µM.

Take a look at these entries with their results.
- item_smiles: "COc1cc2c(Nc3ccc(Cl)cc3F)ncnc2cc1OCCCN1CCOCC1"
  endpoint_value: 0.60
- item_smiles: "COc1cc2c(Nc3ccc(Cl)cc3F)ncnc2cc1OCCn1ccnn1"
  endpoint_value: 1.69
- item_smiles: "COCCOc1cc2ncnc(Nc3ccc(Cl)cc3F)c2cc1OC"
  endpoint_value: 1.08
- item_smiles: "COc1cc2c(Nc3ccc(Cl)cc3F)ncnc2cc1OCCOCCN1CCOCC1"
  endpoint_value: 1.04
- item_smiles: "COCCOc1cc2nccc(Nc3ccc(Cl)cc3F)c2cc1OC"
  endpoint_value: 0.48

Turning now to a further compound:
Would you mind telling me what log10 concentration at 6 h value was observed for COc1cc2c(Nc3ccc(Cl)cc3F)ncnc2cc1OCCn1ccnc1 ?
1.04

* * *

- Tested on: HUVEC
- measurement_protocol: Inhibition of unstimulated HUVEC cell proliferation
- Type: functional, cell-based
- condition_summary: Homo sapiens
outcome_measure: IC50 (µM)
Response body: numeric value in µM, unit text excluded.

Take a look at these entries with their results.
- item_smiles: "COc1cc2c(Nc3c(F)cc(Br)cc3F)ncnc2cc1OCCn1ccnn1"
  experimental_target: "HUVEC"
  IC50 [µM]: 1
- item_smiles: "COCCOc1cc2ncnc(Nc3cc(O)c(Cl)cc3F)c2cc1OC"
  experimental_target: "HUVEC"
  IC50 [µM]: 5

Turning now to a further compound:
Would you mind telling me what IC50 value was observed for COc1cc2c(Nc3ccc(Cl)cc3F)ncnc2cc1OCCn1ccnn1 ?
5

* * *

- experimental_target: UniProtKB P17948
- Sequence (P17948 whole entry): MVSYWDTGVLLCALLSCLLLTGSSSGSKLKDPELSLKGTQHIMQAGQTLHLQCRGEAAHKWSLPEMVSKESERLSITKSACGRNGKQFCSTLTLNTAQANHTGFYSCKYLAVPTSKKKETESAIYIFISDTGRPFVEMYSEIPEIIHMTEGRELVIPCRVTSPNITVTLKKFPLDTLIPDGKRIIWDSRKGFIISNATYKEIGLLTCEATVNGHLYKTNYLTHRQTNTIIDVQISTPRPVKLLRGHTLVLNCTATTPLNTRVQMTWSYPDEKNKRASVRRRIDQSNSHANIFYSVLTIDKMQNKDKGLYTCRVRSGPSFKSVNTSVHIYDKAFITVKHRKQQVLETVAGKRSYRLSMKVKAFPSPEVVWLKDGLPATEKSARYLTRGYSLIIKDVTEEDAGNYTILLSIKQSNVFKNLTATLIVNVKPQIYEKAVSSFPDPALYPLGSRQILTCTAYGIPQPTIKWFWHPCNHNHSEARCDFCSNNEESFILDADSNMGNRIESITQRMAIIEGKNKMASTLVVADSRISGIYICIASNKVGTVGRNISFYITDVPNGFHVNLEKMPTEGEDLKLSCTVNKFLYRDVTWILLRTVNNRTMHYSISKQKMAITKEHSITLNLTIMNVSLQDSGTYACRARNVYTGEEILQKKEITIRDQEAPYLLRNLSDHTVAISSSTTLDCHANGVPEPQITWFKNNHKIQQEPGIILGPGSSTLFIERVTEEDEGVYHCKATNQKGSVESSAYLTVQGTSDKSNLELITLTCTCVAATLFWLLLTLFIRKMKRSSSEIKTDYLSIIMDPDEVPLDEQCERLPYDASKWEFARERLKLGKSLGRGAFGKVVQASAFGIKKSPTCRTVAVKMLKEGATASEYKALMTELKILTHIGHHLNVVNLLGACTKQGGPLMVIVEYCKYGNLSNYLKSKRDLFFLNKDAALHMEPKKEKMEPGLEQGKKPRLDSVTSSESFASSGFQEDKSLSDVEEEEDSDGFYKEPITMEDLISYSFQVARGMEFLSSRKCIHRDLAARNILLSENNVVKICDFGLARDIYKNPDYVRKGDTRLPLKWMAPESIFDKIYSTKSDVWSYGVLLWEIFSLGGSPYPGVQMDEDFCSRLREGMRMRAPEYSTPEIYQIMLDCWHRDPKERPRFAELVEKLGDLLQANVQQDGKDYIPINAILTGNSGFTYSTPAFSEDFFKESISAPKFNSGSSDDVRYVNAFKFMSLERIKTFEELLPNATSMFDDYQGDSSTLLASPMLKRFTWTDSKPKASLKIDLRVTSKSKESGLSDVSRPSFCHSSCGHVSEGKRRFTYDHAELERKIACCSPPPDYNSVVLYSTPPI
Catalogue of compounds with associated IC50
Response body: numeric value in nM, unit text excluded.

Take a look at these entries with their results.
- compound: "COc1cc2c(Nc3c(F)cc(Br)cc3F)ncnc2cc1OCCn1ccnn1"
  outcome_measure: "IC50"
  endpoint_value: 800
- compound: "COc1cc2c(Nc3ccc(Br)cc3F)ncnc2cc1OCCn1ccnn1 [ZD-4190 FREE BASE]"
  outcome_measure: "IC50"
  endpoint_value: 700
- compound: "COCC(=O)Nc1cc2ncnc(Nc3cc(O)c(C)cc3F)c2cc1OC"
  outcome_measure: "IC50"
  endpoint_value: 300
- compound: "COCCOc1cc2nccc(Nc3cc(O)c(Cl)cc3F)c2cc1OC"
  outcome_measure: "IC50"
  endpoint_value: 3
- compound: "COc1cc2c(Nc3ccc(Cl)cc3F)ncnc2cc1OCc1ccncc1"
  outcome_measure: "IC50"
  endpoint_value: 1200
- compound: "COc1cc2ncnc(Nc3cc(O)c(C)cc3F)c2cc1OC"
  outcome_measure: "IC50"
  endpoint_value: 30

Kindly state the measured IC50 obtained for COCCOc1cc2ncnc(Nc3cccc(O)c3)c2cc1OC with UniProtKB P17948.
30

What do you get for COc1cc2c(Nc3ccc(Cl)cc3F)ncnc2cc1OCCCCN1CCOCC1 ?
300

What do you get for COCCOc1cc2nncc(Nc3cc(O)c(Cl)cc3F)c2cc1OC ?
50

What do you get for COc1cc2ncnc(Nc3ccccc3F)c2cc1OC ?
26000

What do you get for COc1cc2ncnc(Nc3ccc(F)cc3F)c2cc1OC ?
22000

What do you get for COc1cc2ncnc(Nc3cccc(O)c3)c2cc1OC ?
200

* * *

Vascular endothelial growth factor receptor 2 (Homo sapiens): recorded pIC50 for assorted compounds
Sequence (P35968 whole entry): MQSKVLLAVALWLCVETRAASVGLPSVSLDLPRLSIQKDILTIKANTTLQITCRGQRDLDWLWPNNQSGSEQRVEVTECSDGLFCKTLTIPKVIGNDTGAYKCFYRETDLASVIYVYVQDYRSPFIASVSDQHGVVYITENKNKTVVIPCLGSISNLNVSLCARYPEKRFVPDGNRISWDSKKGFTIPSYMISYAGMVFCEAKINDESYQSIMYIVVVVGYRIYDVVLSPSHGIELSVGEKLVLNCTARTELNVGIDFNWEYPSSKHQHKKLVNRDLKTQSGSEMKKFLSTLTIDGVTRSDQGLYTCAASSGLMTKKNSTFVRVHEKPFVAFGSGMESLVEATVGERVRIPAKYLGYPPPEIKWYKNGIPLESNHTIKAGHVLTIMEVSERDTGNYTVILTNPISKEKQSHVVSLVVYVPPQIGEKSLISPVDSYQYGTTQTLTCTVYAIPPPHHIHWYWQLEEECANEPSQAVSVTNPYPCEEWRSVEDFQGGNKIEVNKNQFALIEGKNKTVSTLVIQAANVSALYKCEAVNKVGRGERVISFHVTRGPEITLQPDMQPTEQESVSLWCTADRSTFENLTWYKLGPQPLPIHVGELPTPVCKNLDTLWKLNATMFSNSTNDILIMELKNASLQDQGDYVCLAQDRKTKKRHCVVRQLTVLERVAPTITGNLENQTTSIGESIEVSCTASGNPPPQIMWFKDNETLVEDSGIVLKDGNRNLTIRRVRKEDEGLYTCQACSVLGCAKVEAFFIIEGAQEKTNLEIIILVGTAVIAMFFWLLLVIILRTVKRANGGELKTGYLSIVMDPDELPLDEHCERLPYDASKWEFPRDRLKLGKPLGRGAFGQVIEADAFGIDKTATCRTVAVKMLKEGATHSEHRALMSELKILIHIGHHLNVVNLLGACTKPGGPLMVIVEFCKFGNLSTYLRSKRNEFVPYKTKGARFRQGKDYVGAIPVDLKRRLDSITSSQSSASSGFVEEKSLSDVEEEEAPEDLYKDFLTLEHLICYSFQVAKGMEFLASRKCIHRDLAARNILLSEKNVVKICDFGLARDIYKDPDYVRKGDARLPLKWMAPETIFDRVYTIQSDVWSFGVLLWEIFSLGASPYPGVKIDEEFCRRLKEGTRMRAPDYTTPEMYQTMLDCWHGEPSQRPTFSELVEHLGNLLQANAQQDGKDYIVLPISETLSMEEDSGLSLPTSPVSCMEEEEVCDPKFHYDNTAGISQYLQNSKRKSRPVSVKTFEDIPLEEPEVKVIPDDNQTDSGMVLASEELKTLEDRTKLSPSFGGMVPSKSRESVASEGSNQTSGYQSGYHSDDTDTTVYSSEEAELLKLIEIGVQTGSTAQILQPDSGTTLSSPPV
Scale explanation: pIC50 corresponds to minus log10 of a concentration expressed in moles per litre.

Take a look at these entries with their results.
- compound: "COc1cc2c(Nc3ccc(Br)cc3F)ncnc2cc1OCCn1ccnn1 [ZD-4190 FREE BASE]"
  pIC50: 7.52
- compound: "COc1cc2c(Nc3ccc(Cl)cc3F)ncnc2cc1OCCOCCN1CCOCC1"
  pIC50: 7.22
- compound: "COc1cc2c(Nc3ccc(Cl)cc3F)ncnc2cc1OC1CCN(C)CC1"
  pIC50: 5.82
- compound: "COc1cc2ncnc(Nc3ccc(F)c(Cl)c3)c2cc1OC"
  pIC50: 6.10
- compound: "COCC(=O)Nc1cc2ncnc(Nc3cc(O)c(C)cc3F)c2cc1OC"
  pIC50: 6.52
- compound: "COc1cc2ncnc(Nc3cc(O)c(C)cc3F)c2cc1OC"
  pIC50: 8.52

Would you mind telling me what pIC50 value was observed for COc1cc2ncnc(Nc3ccc(Cl)cc3F)c2cc1OC ?
7.00

What do you get for COc1cc2c(Nc3c(F)cc(Br)cc3F)ncnc2cc1OCCn1ccnn1 ?
7.40

* * *

- measurement_protocol: Mouse plasma levels are obtained 24 hr after oral administration of 100 mg/kg of compound.
- Type: ADME, organism-based
- Set-up: dose 100 mg/kg, route oral
- condition_summary: read-out: Plasma level
Catalogue of compounds with associated concentration at 24 h

- item_smiles: "COc1cc2c(Nc3ccc(Cl)cc3F)ncnc2cc1OCCn1ccnn1"
  endpoint_value: "10000 nM"

Would you mind telling me what concentration at 24 h value was observed for COc1cc2c(Nc3ccc(Cl)cc3F)ncnc2cc1OCCOCCN1CCOCC1 ?
< 100 nM

What do you get for COc1cc2ncnc(Nc3cc(O)c(C)cc3F)c2cc1OC ?
< 200 nM

* * *

- measurement_protocol: Mouse plasma levels are obtained 24 hr after oral administration of 100 mg/kg of compound.
- Type: ADME, organism-based
- Design: dose 100 mg/kg, route oral
- condition_summary: read-out: Plasma level
outcome_measure: concentration at 24 h

- item_smiles: "COCCOc1cc2ncnc(Nc3ccc(Cl)cc3F)c2cc1OC"
  concentration at 24 h: "< 100 nM"
- item_smiles: "COc1cc2c(Nc3ccc(Cl)cc3F)ncnc2cc1OCCn1ccnc1"
  concentration at 24 h: "< 100 nM"
- item_smiles: "COc1cc2c(Nc3ccc(Cl)cc3F)ncnc2cc1OCCCN1CCOCC1"
  concentration at 24 h: "800 nM"

Turning now to a further compound:
Would you mind telling me what concentration at 24 h value was observed for COCCOc1cc2ncnc(Nc3cc(O)c(Cl)cc3F)c2cc1OC ?
< 100 nM
